pIC50: −log10 of the molar value.
Below are pIC50 values recorded for Glycogen synthase kinase-3 beta (Homo sapiens, UniProt P49841).

// below: answered compounds
Compound	Recorded Value
O=C1NC(N[C@@H]2c3ccccc3C[C@H]2O)=N/C1=C\c1ccc2ncsc2c1	< 5.00
C[C@@H]1[C@H]2C[C@@H](C[C@H]1NC1=N/C(=C\c3ccc4ncsc4c3)C(=O)N1)C2(C)C	< 5.00
Cn1ccc2cc(/C=C3\N=C(NC45CC6CC(CC(C6)C4)C5)NC3=O)ccc21	< 5.00
O=C1NC(NC23CC4CC(CC(C4)C2)C3)=N/C1=C\c1ccc2c(c1)OCO2	< 5.00

We now examine a further compound.
For Glycogen synthase kinase-3 beta (Homo sapiens, UniProt P49841), provide pIC50 of CC(NC1=N/C(=C\c2ccc3ncsc3c2)C(=O)N1)C12CC3CC(CC(C3)C1)C2 (racemic) please.
< 5.00

The measurements presented in this section are drawn from ChEMBL document CHEMBL5360622.
